Measured DF norm AVERAGE OR85b values are reported for all entries that follow.
target: Drosophila OR85b (Drosophila melanogaster, UniProt Q9VHQ7); construct: expressed in transfected cells; assay: Calcium ion fluorescence (GCaMP6) assay, OR85b stable HEK293 cell line; type: cell-based; details: concentration 10; normalized fluorescence change, values below 0.05 threshold given as 0
Sequence (Q9VHQ7 whole entry, one chain of several): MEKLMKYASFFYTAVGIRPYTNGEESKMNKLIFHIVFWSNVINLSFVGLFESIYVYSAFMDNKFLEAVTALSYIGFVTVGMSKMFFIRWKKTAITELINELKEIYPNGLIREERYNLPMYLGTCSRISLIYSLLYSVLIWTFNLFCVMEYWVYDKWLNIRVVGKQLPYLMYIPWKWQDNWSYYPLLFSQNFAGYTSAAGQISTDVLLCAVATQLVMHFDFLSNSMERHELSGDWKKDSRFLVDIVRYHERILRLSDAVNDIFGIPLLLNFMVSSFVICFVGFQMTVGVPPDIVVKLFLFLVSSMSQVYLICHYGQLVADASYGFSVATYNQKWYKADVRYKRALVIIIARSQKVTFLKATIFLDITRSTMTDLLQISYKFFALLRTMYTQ
Answer using only a numeral; do not append any unit.

>>> numeric_result("C=C(C)C1CCC2(C)OC2C1 (single isomer, unassigned; (+)) [(+)-limonene oxide]")
0

Here CCCCCC(C)O (centres unmarked) was tested on Drosophila OR85b (Drosophila melanogaster, UniProt Q9VHQ7), and its DF norm AVERAGE OR85b came to 0

Here CCCCCCCCC(CO)CCCCCC (centres unmarked) was tested on Drosophila OR85b (Drosophila melanogaster, UniProt Q9VHQ7), and its DF norm AVERAGE OR85b came to 0.06997

Here CC1=CCC2C(C1)C2(C)C (centres unmarked) was tested on Drosophila OR85b (Drosophila melanogaster, UniProt Q9VHQ7), and its DF norm AVERAGE OR85b came to 0

Here `CCCCC(C)=O` was tested on Drosophila OR85b (Drosophila melanogaster, UniProt Q9VHQ7), and its DF norm AVERAGE OR85b came to 0.05777

----------
Measured activation at 10 µM values are reported for all entries that follow.
Biological target: Drosophila OR49b (Drosophila melanogaster)
Construct: expressed in transfected cells
Sequence (Q9V6H2 1-375): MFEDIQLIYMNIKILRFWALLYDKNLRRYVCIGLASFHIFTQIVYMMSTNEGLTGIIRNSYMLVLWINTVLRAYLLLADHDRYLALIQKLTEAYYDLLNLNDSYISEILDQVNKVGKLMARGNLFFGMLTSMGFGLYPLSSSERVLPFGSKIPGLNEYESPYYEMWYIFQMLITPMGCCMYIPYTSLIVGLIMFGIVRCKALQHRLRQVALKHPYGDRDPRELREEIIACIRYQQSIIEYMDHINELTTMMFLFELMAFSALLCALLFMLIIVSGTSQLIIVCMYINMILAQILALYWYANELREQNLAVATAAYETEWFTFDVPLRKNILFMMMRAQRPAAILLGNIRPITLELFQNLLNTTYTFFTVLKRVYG
Sequence (Q9VNB5 1-486 partner): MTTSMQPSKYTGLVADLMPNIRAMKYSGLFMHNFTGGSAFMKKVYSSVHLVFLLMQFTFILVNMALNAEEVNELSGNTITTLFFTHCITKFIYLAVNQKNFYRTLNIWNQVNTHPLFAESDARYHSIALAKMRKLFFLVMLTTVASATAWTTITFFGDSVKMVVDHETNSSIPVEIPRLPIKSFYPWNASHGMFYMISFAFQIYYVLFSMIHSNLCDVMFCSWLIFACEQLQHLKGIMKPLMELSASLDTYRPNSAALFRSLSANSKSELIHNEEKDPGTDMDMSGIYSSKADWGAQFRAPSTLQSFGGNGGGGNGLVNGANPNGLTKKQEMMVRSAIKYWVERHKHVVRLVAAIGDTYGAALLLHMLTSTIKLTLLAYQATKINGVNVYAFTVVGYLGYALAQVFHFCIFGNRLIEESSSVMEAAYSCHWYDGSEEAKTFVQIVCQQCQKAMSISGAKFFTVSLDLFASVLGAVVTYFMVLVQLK
Test: cell-based
Conditions: HEK293; 10 μM VOC; 50 μM VUAA1 = 1; read-out: OR49b Average response (VUAA1-normalized)
All answers are understood in %, so give the number only.

See these solved cases before continuing.
>>> numeric_result("Cc1cccc(O)c1 [3-methylphenol]")
13
>>> numeric_result("CC(=O)OCCC(C)C [isopentyl acetate]")
0
>>> numeric_result("Cc1ccc(C)c(C)c1 [1,2,4-trimethylbenzene]")
0

Recorded result, COC(=O)c1ccccc1O [methyl salicylate] , activation at 10 µM: 0

Recorded result, O=Cc1ccccc1 [benzaldehyde] , activation at 10 µM: 3

Recorded result, Cc1ccccc1C [o-xylene] , activation at 10 µM: 9

Recorded result, Cc1ccccc1 [toluene] , activation at 10 µM: 0

Recorded result, CC(=O)c1ccccc1 [acetophenone] , activation at 10 µM: 0

Recorded result, Cc1cccc(C)c1 [m-xylene] , activation at 10 µM: 3

----------
Target: Drosophila OR10a (Drosophila melanogaster)
Construct: expressed in transfected cells
Sequence (Q9VYZ1 1-406): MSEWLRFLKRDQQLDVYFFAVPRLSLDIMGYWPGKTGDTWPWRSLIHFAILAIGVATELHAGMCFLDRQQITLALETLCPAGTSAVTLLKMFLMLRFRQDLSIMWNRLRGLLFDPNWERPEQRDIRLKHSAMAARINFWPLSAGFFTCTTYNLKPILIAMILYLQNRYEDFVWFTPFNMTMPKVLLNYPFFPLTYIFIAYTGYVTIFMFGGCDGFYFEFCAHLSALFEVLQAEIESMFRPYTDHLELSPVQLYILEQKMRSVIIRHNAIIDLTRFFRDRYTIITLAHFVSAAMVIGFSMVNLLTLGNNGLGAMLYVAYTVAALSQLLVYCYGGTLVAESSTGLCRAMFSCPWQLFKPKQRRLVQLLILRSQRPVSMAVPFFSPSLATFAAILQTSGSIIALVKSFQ
Sequence (Q9VNB5 1-486 partner): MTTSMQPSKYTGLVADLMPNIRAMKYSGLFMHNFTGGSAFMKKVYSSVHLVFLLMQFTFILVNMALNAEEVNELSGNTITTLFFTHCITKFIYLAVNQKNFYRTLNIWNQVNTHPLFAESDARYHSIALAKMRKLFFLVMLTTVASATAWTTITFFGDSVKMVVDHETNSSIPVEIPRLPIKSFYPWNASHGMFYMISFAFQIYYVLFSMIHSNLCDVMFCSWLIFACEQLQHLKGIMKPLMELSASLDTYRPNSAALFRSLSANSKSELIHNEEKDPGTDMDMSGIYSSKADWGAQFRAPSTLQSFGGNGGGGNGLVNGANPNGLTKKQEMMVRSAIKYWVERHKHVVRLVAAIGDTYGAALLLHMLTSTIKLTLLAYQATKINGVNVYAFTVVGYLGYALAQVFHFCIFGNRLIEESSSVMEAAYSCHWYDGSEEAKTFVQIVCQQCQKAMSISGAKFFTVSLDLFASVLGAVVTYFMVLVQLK
Assay: Calcium ion fluorescence (GCaMP6) assay, OR10a stable HEK293 cell line
Assay type: cell-based
Conditions: HEK293, 10 μM VOC; 50 μM VUAA1 = 1; responses not exceeding 0.05 considered 0; read-out: OR10a Average response (VUAA1-normalized)
value kind: activation at 10 µM (%)
All answers are understood in %, so give the number only.

>>> numeric_result("Cc1cccc(O)c1 [3-methylphenol]")
6
>>> numeric_result("CCOC(=O)CC [ethyl propionate]")
1.89
>>> numeric_result("CCCCCC(C)=O [2-heptanone]")
4
>>> numeric_result("CCCCCO [1-pentanol]")
0
>>> numeric_result("CC(=O)c1ccccc1 [acetophenone]")
0

Recorded result, CCCCCC(O)CC (centres unmarked) [3-octanol] , activation at 10 µM: 6

Recorded result, CCCCCC(C)O (centres unmarked) [2-heptanol] , activation at 10 µM: 7.54

Recorded result, O=Cc1ccccc1 [benzaldehyde] , activation at 10 µM: 4

Recorded result, C=CCc1ccc(O)c(OC)c1 [eugenol] , activation at 10 µM: 6

Recorded result, Cc1ccc(O)cc1 [4-methylphenol] , activation at 10 µM: 1.81

Recorded result, CCCCOC(=O)CC [butyl propanoate] , activation at 10 µM: 0

----------
Target: Drosophila OR47a (Drosophila melanogaster)
Construct: expressed in transfected cells
Sequence (P81921 1-385): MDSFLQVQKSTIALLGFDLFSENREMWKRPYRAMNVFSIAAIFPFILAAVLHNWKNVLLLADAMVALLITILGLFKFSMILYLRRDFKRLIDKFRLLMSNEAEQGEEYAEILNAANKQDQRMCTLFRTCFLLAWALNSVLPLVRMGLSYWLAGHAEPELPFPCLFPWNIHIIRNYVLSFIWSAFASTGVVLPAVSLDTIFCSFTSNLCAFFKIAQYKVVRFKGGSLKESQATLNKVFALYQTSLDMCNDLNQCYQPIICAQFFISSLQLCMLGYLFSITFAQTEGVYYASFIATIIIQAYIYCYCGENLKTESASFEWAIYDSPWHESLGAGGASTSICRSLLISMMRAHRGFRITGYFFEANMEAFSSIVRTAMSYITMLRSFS
Sequence (Q9VNB5 1-486 partner): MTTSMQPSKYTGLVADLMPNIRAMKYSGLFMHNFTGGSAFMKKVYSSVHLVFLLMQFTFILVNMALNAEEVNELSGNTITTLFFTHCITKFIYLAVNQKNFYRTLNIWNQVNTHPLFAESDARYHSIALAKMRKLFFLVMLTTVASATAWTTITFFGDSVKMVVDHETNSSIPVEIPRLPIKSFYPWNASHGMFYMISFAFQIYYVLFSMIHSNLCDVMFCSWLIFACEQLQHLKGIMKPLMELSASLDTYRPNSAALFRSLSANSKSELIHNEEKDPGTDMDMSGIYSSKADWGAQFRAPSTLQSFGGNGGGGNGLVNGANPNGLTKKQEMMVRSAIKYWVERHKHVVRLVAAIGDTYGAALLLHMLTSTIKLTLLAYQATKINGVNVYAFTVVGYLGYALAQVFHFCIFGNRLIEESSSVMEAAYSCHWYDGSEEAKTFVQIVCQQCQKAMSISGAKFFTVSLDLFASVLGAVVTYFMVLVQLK
Experiment: Calcium ion fluorescence (GCaMP6) assay, OR47a stable HEK293 cell line
Assay type: cell-based
Conditions: ligand concentration 10 (unit not given); threshold 0.05, below shown as 0
value kind: DF norm AVERAGE OR47a
Answer using only a numeral; do not append any unit.

>>> numeric_result("COC(=O)c1ccccc1 [methyl benzoate]")
0
>>> numeric_result("CC/C=C/CCO")
0

Recorded result, `Cc1cccc(C)c1` , DF norm AVERAGE OR47a: 0

Recorded result, CC(=O)OCC(C)C [isobutyl acetate] , DF norm AVERAGE OR47a: 0.1518

Recorded result, `Cc1ccccc1C` , DF norm AVERAGE OR47a: 0

Recorded result, CCCCCOC(C)=O [pentyl acetate] , DF norm AVERAGE OR47a: 0.8532

Recorded result, `Cc1ccc(C)cc1` , DF norm AVERAGE OR47a: 0

Recorded result, CCCOC(C)=O [propyl acetate] , DF norm AVERAGE OR47a: 0.0896

Recorded result, CCOC(=O)CC [ethyl propionate] , DF norm AVERAGE OR47a: 0

Recorded result, COC(=O)c1ccccc1O [methyl salicylate] , DF norm AVERAGE OR47a: 0

Recorded result, C=CC(C)(O)CCC=C(C)C (stereo not drawn) , DF norm AVERAGE OR47a: 0

Recorded result, CCCCCC(=O)OCC [ethyl hexanoate] , DF norm AVERAGE OR47a: 0.2596

Recorded result, CCOC(=O)c1ccccc1 [ethyl benzoate] , DF norm AVERAGE OR47a: 0

Recorded result, `Cc1ccc(C(C)C)cc1` , DF norm AVERAGE OR47a: 0

Recorded result, CCCC(=O)OCC [ethyl butyrate] , DF norm AVERAGE OR47a: 0

Recorded result, `C=CCc1ccc(O)c(OC)c1` , DF norm AVERAGE OR47a: 0

Recorded result, CC1=CCC2CC1C2(C)C (stereo not drawn) , DF norm AVERAGE OR47a: 0

Recorded result, `CCc1ccccc1` , DF norm AVERAGE OR47a: 0
